- Test system: BGC-823
- assay explanation: Cytotoxicity against human BGC823 cells by MTT assay
- Type: functional, cell-based
measured metric: IC50 (nM)
Your answer is read as nM, so omit the unit and give the number.

What value of IC50 on BGC-823 does CC1=CC(=O)[C@@H](O)[C@]2(C)[C@H]3[C@@H](O)[C@H](O)[C@@]4(CO)OC[C@@]35[C@@H](C[C@@H]12)OC(=O)[C@H](O)[C@]54O have?
2100

====

- Test system: BGC-823
- assay explanation: Cytotoxicity against human BGC823 cells by MTT assay
- Assay type: functional, cell-based
measured metric: pIC50
The value called pIC50 is obtained by taking minus log10 of the concentration in mol/L.

CC1=C[C@H](O)[C@@H](O)[C@]2(C)[C@H]3[C@@H](O)[C@H](O)[C@@]4(C)OC[C@@]35[C@@H](C[C@@H]12)OC(=O)[C@H](O)[C@]54O [BRUCEINE E] ... 5.66
COC(=O)[C@@]12OC[C@]34[C@H]([C@@H](O)[C@@H]1O)[C@@]1(C)C[C@H](O)C(=O)[C@@H](C)[C@@H]1C[C@H]3OC(=O)[C@H](OC(=O)C=C(C)C)[C@@H]24 [JAVANICOLIDE H] ... 6.28
COC(=O)[C@@]12OC[C@@]34[C@@H](CC5=C(C)C(=O)C(O)=C[C@]5(C)[C@H]3[C@@H](O)[C@@H]1O)OC(=O)[C@H](OC(=O)C=C(C)C)[C@@H]24 [DEHYDROBRUSATOL] ... 5.32

# ---- query compound ----
For the compound shown here, COC(=O)[C@@]12OC[C@]34[C@H]([C@@H](O)[C@@H]1O)[C@@]1(C)CC(=O)C(O)=C(C)[C@@H]1C[C@H]3OC(=O)[C@H](OC(C)=O)[C@@H]24 [BRUCEINE B] , give the reported pIC50.
6.09
